SYSTEM_UNDER_TEST: T1, human alpha4beta7 (human, UniProt P13612 34-1032; P26010 20-798)
T1 construct: whole, on cells; also called a4b7; wt
PROTOCOL_SUMMARY: FACS competition, blocks biotinylated MAdCAM-1-Fc binding to human CD4+CD45RA- memory T cells
Listed here are binders together with their documented IC50.
The answer is to be given in µg/mL; state only the numeric part.

[
  {
    "BINDER": "17C8 (antibody, V domains shown, Fully human monoclonal from XenoMouse (human IgG2 or IgG4); kappa light chain; also called 17C8K; 17C8H) VH: QVQLVESGGGLVKPGGSLRLSCAASGFTFSDYYMSWIRQAPGKGLEWLSYISNSGSAMYYADSVKGRFTISRDNARNSLYLQMNSLRAEDTAVYYCAREYSSGWFFFESWGQGTLVTVSS VL: EIVMTQSPATLSVSPGERATLSCRASQSVSSNLVWYQQKPGQAPRLLIYGASTRATGIPARFSGSGSGTDFTLTISSLQSEDFAVYYCQQYDDWPPLTFGGGTTVEIK",
    "IC50, µg/mL": 0.0311
  },
  {
    "BINDER": "18A11 (antibody, V domains shown, Fully human monoclonal from XenoMouse (human IgG2 or IgG4); kappa light chain; also called 18A11K; 18A11H) VH: QVQLVQSGAEVKKPGASVKVSCKVSGYTLSDLSIHWVRQAPGKGLEWMGGFDPQDGETIYAQKFQGRVTMTEDTSTDTAYMELSSLKSEDTAVYYCATGSSSSWFDPWGQGTLVTVSS VL: DIQMTQSPSSVSASVGDRVTITCRASQGISSWLAWYQQKPGKAPKLLIYGASNLESGVPSRFSGSGSGTDFTLTISSLQPEDFANYYCQQANSFPWTFGQGTKVEIK",
    "IC50, µg/mL": 0.0073
  },
  {
    "BINDER": "19G6 (antibody, V domains shown, Fully human monoclonal from XenoMouse (human IgG2 or IgG4); kappa light chain; also called 19G6K; 19G6H) VH: QVQLVESGGDLVKPGGSLRLSCAASGFTFSDYYMSWIRQAPGKGLEWISYISSSGSTMYYADSVKGRFTISRVNAKNSLYLQMNSLRAEDTAVYYCARDRSSGLVSFDYWGQGTLVTVSS VL: DIQMTQSPSSLSASVGDRVTISCQASQDINTYLNWYQQKPGKVPKLLIYDASNLETGVPSRFSGSGSGTDFTFTISGLQPEDIATYYCQQFDNLPITFGQGTRLEIK",
    "IC50, µg/mL": 0.103
  },
  {
    "BINDER": "25C9 (antibody, V domains shown, Fully human monoclonal from XenoMouse (human IgG2 or IgG4); kappa light chain; also called 25C9k; 25C9K) VH: QVQLVESGGGLVKPGGSLRLSCAASGFTFNDYYMSWIRQAPGKGLEWVSYISSSGSAIHYADSVKGRFTISRDNAKNSLYLQMNSLRAEDTAVYYCAREYSSGWAYFDYWGQGTLVTVSS VL: DIQMTQSPSSVSASVGDRVTITCRASQDISSWLAWYQRKPGKAPKVLIYSASSLQSGVPSRFSGSGSGTDFTLTISSLQPEDFATYYCQQADSFPWTFGQGTKVEIK",
    "IC50, µg/mL": 0.0776
  },
  {
    "BINDER": "22B2 (antibody, V domains shown, Fully human monoclonal from XenoMouse (human IgG2 or IgG4); kappa light chain; also called 22B2K; 22B2H) VH: EVQLVQSGAEVKEPGESLKISCKGSGYIFTSYWIAWVRQLPGKGLEWMGIIDPNDSDTRYSPSFQGQVTISADKSIHTAYLQWSSLKASDTAMYYCATHRLWLGTLPGGFYIWGQGTMVTVSS VL: DVQMTQSPSSLSASVGDRVTITCQASQDITDYLNWYQQKPGKAPKLLIYDTSNLEAGVPSRFSGSGSGTDFTFTISSLQPEDIATYYCQQYDILPYSFGQGTDLEIK",
    "IC50, µg/mL": 0.0232
  }
]

Then this binder:
// IC50 value for 26G2 (antibody, V domains shown, Fully human monoclonal from XenoMouse (human IgG2 or IgG4); kappa light chain; also called 26G2k; 26G2K) VH: QVQLVESGGGLVKPGGSLRLSCAASGFTFSDYYMSWIRQAPGKGLEWVSYISSIGSAIHYADSVKGRFTISRDNAKNSLYLQMNSLRAEDTAVYYCAREYSSGWAYFDYWGQGTLVTVSS VL: DIQMTQSPSSVSASVGDRVTITCRASQDISSWLAWYQQKPGTAPKVLIYSASSLQNGVPSRFSGRGSGTDFALTISSLQPEDFATYYCQQADSFPWTFGRGTKVEIK : 0.0996
